# test-target: UniProtKB Q12809
# Sequence (Q12809 whole entry): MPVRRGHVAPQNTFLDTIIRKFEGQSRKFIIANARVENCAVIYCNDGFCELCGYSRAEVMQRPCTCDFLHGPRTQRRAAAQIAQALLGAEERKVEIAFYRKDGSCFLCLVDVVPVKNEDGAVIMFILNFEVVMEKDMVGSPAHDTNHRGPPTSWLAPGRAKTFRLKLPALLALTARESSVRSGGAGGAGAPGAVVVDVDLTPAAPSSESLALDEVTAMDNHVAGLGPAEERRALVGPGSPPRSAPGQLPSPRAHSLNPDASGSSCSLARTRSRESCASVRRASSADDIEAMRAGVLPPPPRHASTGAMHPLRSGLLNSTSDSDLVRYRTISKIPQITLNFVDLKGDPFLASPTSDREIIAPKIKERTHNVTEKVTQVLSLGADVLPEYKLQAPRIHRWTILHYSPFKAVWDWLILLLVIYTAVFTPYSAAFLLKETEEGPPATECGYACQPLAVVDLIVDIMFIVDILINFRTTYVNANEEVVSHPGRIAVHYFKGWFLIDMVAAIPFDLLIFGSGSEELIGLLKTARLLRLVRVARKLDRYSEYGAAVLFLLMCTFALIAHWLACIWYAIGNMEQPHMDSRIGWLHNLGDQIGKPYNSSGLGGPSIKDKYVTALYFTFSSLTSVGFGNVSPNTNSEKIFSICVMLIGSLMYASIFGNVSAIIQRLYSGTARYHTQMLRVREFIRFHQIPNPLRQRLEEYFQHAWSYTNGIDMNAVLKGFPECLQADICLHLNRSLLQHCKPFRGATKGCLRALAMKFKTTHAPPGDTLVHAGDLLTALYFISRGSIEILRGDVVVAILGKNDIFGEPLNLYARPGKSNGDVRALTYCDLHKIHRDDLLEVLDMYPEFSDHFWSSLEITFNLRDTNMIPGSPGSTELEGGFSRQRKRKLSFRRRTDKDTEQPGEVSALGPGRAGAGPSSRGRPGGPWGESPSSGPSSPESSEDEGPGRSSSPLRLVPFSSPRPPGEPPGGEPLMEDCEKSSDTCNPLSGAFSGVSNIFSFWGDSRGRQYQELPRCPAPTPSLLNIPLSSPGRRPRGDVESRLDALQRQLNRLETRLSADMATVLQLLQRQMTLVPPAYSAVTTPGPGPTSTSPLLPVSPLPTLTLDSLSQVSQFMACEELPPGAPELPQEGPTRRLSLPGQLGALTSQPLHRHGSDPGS
# method-description: In vitro toxicity, hERG inhibition
# Assay type: biochemical
pIC50: −log10 of the molar value.
Recorded pIC50 split into classes 0 (below 5), 1 (5 to below 6), 2 (6 or more)

Any idea which band COc1cc(CCC(C)(C)N2Cc3cccc(C(=O)N4CCN(C)CC4)c3C2)ccc1O [compound 82] is in?
0

Any idea which band CC(C)Oc1cc(CCC(C)(C)N2Cc3cc4c(cc3C2)OCO4)ccc1O [compound 29] is in?
2

Any idea which band C[C@H](CCc1ccc(Cl)c(Cl)c1)N1Cc2cc3c(cc2C1)OCO3 [compound 10] is in?
0

Any idea which band CC(C)Oc1cc(CC[C@@H](C)N2Cc3ccc(F)cc3C2)ccc1O [compound 37] is in?
2

Any idea which band C[C@H](CCc1ccc(F)cc1)N1Cc2cccc(F)c2C1 [compound 21] is in?
0

Any idea which band C[C@H](CCc1ccc(O)c(OC(C)(C)C)c1)N1Cc2c(F)ccc(F)c2C1 [60A] is in?
0

Any idea which band CC(C)Oc1cc(CC[C@@H](C)N2Cc3cccc(F)c3C2)ccc1O [compound 26] is in?
1

Any idea which band CC(C)COc1cc(CCC(C)(C)N2Cc3cccc(F)c3C2)ccc1O [compound 88] is in?
1

Any idea which band C[C@H](CCc1ccc(O)c(OC(F)(F)F)c1)N1Cc2ccc(F)cc2C1 [compound 31] is in?
1

Any idea which band CC(C)(CCc1ccc(O)c(OC(F)(F)F)c1)N1Cc2cccc(F)c2C1 [compound 54] is in?
1

Any idea which band COC[C@H](CCc1ccc(Cl)c(Cl)c1)N1Cc2ccc(F)cc2C1 [compound 46] is in?
1

Any idea which band COc1cc(CC[C@@H](C)N2Cc3ccc(F)cc3C2)ccc1OCCO [compound 30] is in?
1

Any idea which band COCCN(C)C(=O)c1cccc2c1CN(C(C)(C)CCc1ccc(O)c(OC)c1)C2 [compound 86] is in?
1

Any idea which band CC(C)(CCc1ccc(F)cc1)N1Cc2ccc(F)cc2C1 [compound 35] is in?
2

Any idea which band CC(C)(C)Oc1cc(CCC(C)(C)N2Cc3c(F)ccc(F)c3C2)ccc1O [compound 74] is in?
0
